The reported numbers originate from patent US20230219986A1.

Target: Ba/F3 L858R/T790M/C797S EGFR triple mutant cell line (Homo sapiens, UniProt P00533, T790M/C797S/L858R, cells depend on it)
Sequence (P00533 whole entry T790M/C797S/L858R): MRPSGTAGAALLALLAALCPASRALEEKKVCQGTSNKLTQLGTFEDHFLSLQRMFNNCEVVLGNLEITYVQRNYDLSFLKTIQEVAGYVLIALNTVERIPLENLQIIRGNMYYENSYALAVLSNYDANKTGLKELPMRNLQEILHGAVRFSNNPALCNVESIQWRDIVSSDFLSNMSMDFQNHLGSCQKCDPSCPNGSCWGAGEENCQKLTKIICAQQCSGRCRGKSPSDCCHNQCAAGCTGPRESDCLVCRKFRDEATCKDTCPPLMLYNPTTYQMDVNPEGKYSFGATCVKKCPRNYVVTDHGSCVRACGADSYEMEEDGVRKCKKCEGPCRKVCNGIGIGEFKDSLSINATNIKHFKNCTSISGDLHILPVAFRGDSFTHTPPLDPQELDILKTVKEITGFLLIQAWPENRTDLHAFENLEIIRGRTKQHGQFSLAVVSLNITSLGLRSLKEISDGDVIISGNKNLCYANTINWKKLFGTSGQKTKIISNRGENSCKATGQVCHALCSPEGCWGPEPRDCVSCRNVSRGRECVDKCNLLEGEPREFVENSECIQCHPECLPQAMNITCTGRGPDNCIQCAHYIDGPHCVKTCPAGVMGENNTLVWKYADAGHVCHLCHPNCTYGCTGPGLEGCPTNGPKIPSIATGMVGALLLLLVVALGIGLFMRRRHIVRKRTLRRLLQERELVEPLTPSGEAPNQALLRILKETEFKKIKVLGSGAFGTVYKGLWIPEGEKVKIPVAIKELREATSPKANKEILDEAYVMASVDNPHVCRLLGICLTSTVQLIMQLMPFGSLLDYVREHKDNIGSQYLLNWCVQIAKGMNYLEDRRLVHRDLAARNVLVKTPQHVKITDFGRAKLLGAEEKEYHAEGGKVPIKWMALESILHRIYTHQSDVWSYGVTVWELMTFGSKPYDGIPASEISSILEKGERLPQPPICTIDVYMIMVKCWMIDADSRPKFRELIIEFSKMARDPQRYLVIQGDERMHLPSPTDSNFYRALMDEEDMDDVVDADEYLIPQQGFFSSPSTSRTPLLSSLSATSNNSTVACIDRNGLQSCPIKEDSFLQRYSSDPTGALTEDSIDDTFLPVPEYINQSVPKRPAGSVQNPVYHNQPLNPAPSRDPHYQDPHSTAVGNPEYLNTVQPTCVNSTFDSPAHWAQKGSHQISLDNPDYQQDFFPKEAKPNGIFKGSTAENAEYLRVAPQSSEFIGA
Assay: Cell proliferation inhibition experiment (CellTiter-Glo), Ba/F3 L858R/T790M/C797S
Assay type: cell-based
Settings: 72 hours, Cell Titer-Glo, read-out: Ba/F3 (L858R/T790M/C797S) IC50
Procedure: 3) 30 nL of gradient diluted compound was transferred into the 384-well experimental plate using Echo 550 (Labcyte) at a DMSO final concentration of 0.1%, and the culture plate was incubated in a cell incubator for 72 hours (37° C., 5% CO2). 4) 30 μL of Cell Titer-Glo reagent was added to each well and left for 30 minutes at room temperature and protected from light. 5) Envision microplate reader (PerkinElmer) detected chemiluminescence signals. […]
ASSAY READOUT: GI50 (nM)

These recorded examples may help you get a feel for the data.
[
  {
    "COMPOUND": "COc1cc(N2CC(C)OC(C)C2)c(-c2cnn(C)c2)cc1Nc1ncc(Br)c(Nc2ccc3nccnc3c2P(C)(C)=O)n1 (single isomer, unassigned) [155b]",
    "DISPLAY UNIT": "nM",
    "GI50": 7.55
  },
  {
    "COMPOUND": "COc1cc(N2CCN(C)C(CF)C2)c(-c2cnn(C)c2)cc1Nc1ncc(Br)c(Nc2ccc3nccnc3c2P(C)(C)=O)n1 (stereo not shown)",
    "DISPLAY UNIT": "nM",
    "GI50": 2.89
  }
]

[P] COc1cc(N2CCC(C)(OC)CC2)c(-c2cnn(C)c2)cc1Nc1ncc(Br)c(Nc2ccc3nccnc3c2P(C)(C)=O)n1
[Q] COc1cc(N2CCC3(CC2)CN(C)CC(C)O3)c(-c2cnn(C)c2)cc1Nc1ncc(Br)c(Nc2ccc3nccnc3c2P(C)(C)=O)n1 (racemic)
QUERY: Between these two entries, P and Q , state which has the higher GI50. API: response body contains the label of the selected item.
RESULT: Q
(Q: 3.29 nM, P: 0.87 nM)
